Where these numbers come from: paper PMC11345841

target or system: FGFR1 (Homo sapiens, UniProt P11362)
Construct: purchased Eurofins DiscoverX KINOMEscan (scanTK)
Sequence (P11362 22-822): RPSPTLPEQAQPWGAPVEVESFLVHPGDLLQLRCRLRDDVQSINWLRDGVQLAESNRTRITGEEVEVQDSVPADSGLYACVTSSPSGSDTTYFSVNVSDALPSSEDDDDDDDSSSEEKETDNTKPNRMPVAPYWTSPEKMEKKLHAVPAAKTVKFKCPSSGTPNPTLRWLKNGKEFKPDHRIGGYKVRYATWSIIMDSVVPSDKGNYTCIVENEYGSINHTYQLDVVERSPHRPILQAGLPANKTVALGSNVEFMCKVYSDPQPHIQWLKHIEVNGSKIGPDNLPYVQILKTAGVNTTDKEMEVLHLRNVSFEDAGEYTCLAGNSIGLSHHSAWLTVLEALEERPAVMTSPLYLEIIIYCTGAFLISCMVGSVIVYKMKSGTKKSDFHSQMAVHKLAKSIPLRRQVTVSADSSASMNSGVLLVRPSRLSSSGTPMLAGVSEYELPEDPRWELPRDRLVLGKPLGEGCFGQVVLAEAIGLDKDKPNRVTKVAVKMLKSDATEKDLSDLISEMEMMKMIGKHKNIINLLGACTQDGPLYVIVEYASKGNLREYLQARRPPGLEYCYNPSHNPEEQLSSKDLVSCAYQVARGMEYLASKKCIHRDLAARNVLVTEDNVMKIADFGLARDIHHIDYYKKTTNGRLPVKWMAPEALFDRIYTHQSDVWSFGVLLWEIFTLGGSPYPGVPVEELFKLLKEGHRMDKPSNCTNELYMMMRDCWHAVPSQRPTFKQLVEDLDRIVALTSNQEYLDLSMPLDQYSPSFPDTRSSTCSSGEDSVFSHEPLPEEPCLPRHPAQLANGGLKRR
assay protocol: KINOMEscan ScanTK
Assay type: binding
condition summary: read-out: %Control @1000nM
Output 1.0 for records whose remaining binding at 1 µM is lower than 80%, 0.0 for records at or above 80%.

I'd appreciate it if you could check whether Cc1cnc(S(C)(=O)=O)nc1N1CCCC(n2nc(-c3ccc(Oc4ccccc4)cc3)c3c(N)ncnc32)C1 (centres unmarked) [Compound 8a] has remaining binding at 1 µM smaller than 80%. 1.0

---

Could you please report measured difference in %Control versus compound Ib at 1 µM for the items listed next?
target or system: KIT (Homo sapiens, UniProt P10721)
Construct: purchased Eurofins DiscoverX KINOMEscan (scanTK)
Sequence (P10721 26-976): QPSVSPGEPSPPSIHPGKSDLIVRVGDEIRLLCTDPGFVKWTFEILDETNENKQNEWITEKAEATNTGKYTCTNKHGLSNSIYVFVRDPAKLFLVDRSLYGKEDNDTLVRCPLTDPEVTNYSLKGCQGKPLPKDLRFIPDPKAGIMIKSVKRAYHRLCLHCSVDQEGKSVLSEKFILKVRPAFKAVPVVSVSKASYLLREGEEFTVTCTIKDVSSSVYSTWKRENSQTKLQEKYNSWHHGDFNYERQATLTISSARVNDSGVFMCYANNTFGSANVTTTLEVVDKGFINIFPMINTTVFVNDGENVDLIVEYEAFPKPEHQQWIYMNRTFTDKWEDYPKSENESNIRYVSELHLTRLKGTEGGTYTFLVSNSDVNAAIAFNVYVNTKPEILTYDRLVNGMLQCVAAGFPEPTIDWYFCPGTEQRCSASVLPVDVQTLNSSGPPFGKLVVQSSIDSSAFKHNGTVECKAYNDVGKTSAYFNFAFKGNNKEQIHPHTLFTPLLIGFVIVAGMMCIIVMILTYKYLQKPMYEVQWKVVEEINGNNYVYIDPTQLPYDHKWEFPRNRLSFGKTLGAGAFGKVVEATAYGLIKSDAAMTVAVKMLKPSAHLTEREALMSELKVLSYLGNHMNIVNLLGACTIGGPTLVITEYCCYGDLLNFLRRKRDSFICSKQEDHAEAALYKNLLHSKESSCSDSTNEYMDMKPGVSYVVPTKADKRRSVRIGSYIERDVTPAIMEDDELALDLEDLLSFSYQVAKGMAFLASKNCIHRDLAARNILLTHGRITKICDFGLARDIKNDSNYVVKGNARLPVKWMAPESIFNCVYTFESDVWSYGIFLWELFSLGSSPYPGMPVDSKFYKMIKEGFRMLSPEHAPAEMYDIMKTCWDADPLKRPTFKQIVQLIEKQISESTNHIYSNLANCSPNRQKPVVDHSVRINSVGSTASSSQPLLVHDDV
assay protocol: KINOMEscan ScanTK
Format: binding
condition summary: @1000nM
Answers are plain numbers, in %.

Worked cases, answers included:
{"compound": "CCOC(=O)c1cnc(S(C)(=O)=O)nc1N1CCC[C@@H](n2nc(-c3ccc(Oc4ccccc4)cc3)c3c(N)ncnc32)C1", "measured value": 52}
{"compound": "COC(=O)c1cnc(S(C)(=O)=O)nc1N1CCCC(n2nc(-c3ccc(Oc4ccccc4)cc3)c3c(N)ncnc32)C1 (stereo not shown)", "measured value": 30}
{"compound": "Cc1cnc(S(C)(=O)=O)nc1N1CCCC(n2nc(-c3ccc(Oc4ccccc4)cc3)c3c(N)ncnc32)C1 (stereo not shown)", "measured value": 20}

Given the compound CNC(=O)c1cnc(S(C)(=O)=O)nc1N1CCCC(n2nc(-c3ccc(Oc4ccccc4)cc3)c3c(N)ncnc32)C1 (stereo not shown) , what is its reported difference in %Control versus compound Ib at 1 µM? 58
